# system-tested: recombinant homotrimeric HA A/California/4/09 H1N1 (Influenza A virus A/California/04/2009(H1N1))
# test-summary: protein microarray, purified IgG, trimeric HA
# condition-details: remark: other sources report otherwise
Please respond with reported Trimeric HA Binding: RLU for every item in the list.
Answers are plain numbers, in RLU.

Worked cases, Trimeric HA Binding: RLU given:
Which Trimeric HA Binding: RLU value is on record for TCN-540 (5060_F05) (antibody, V domains shown) VH: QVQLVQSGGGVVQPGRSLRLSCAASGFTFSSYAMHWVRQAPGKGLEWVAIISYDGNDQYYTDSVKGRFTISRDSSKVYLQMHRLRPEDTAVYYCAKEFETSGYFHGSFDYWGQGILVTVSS VL: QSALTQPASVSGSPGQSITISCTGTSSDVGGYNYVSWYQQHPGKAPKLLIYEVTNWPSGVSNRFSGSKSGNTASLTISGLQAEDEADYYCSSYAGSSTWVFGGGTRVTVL ?
266

Quick one: Trimeric HA Binding: RLU of TCN-555 (5246_L16) (antibody, V domains shown) VH: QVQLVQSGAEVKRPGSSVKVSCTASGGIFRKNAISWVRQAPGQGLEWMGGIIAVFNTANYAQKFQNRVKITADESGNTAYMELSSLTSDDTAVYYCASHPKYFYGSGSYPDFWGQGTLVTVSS VL: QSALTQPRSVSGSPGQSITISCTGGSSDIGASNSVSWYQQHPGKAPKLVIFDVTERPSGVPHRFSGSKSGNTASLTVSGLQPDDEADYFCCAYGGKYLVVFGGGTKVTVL ?
25500

What value of measured Trimeric HA Binding: RLU is listed for TCN-528 (5087_P17) (antibody, V domains shown) VH: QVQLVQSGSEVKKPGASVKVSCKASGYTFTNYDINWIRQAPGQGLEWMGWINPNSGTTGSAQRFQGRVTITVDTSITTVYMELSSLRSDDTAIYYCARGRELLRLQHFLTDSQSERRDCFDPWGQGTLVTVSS VL: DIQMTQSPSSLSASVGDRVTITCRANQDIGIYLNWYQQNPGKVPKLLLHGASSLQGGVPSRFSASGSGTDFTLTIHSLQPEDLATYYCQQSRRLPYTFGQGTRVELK ?
6810

What value of Trimeric HA Binding: RLU has been recorded for this entry: TCN-529 (5297_H01) (antibody, V domains shown) VH: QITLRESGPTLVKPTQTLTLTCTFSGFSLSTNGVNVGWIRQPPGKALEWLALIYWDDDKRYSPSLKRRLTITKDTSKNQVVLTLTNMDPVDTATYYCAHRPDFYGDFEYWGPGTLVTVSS VL: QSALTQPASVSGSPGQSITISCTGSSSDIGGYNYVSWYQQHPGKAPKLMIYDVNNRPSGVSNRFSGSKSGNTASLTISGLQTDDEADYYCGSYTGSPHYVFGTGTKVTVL
977

Continue with the binder presented below.
Need Trimeric HA Binding: RLU of TCN-558 (5248_H10b) (antibody, V domains shown) VH: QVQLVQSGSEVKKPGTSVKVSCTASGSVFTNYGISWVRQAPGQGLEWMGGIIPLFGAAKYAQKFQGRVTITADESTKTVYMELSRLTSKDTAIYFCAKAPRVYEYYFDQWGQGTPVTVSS VL: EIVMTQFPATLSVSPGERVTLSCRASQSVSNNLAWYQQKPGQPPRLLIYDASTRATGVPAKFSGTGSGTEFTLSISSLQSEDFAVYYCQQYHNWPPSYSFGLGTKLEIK , thanks.
24700
